- System Name: DRB1*0401 (DR4w4)
- Method Summary: binding to purified HLA
Readout Type: IC50 (nM)
# number only, unit nM dropped from output

binder="GSISYPARYANAMAV [B. lentus 157]" unit_of_measure=nM quantitative_readout=4790
binder="NGIEWAIANNMDVIN [BPN' Y217L .109]" unit_of_measure=nM quantitative_readout=30
binder="GTVAALNNSIGVLGV [BPN' Y217L .70]" unit_of_measure=nM quantitative_readout=33

Next up:
// query IC50 value for entry SYPARYANAMAVGAT [B. lentus .160]
142
